Could you please report measured protein stability index for the items listed next?
method-summary: protein stability index of a GFP-peptide fusion (GPS, HEK-293T) (PSI 1-6); higher = more stable;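 also: 24-mer peptide tiles fused after GFP, lentivirally expressed, FACS-sorted into six equal bins by GFP/DsRed ratio, decoded by Illumina sequencing, PSI is the read-weighted mean bin number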
assay-setup: treatment: MLN4924 1 uM, 8 h; c terminus: a fixed tail appended
Give bare numbers.

Some solved cases for reference:
biosequence: LKYQAPDIDVQLSSELTDSLRTLK [NOP53]
protein stability index: 3.14

biosequence: EDGKRCVAVDYCASENHGCEHECV [MATN2]
protein stability index: 4.88

biosequence: SDPEISDVDEDEPGGLVGSADVVS [PPFIA4]
protein stability index: 5.35

Return reported protein stability index values for all items listed beneath this line.
1. TVEKDKVTGETRVLSSTTLLPRQP [PALM]
2. PELPEGHLEDWLEKRAKRLSSAPS [ZMAT5]

1: 4.87; 2: 5.14

Return reported protein stability index values for all items listed beneath this line.
1. SAPPITPECRQVLKTSRKDVKDKE [CHGB]
2. FQARLSGNNLHNASIPEHLAYGSV [POMT2]
3. FARHIKKSEGQKIPKVELQISIYG [GULP1]

5.41
2.95
1.9

Return reported protein stability index values for all items listed beneath this line.
1. EDLATAYNNRGQIKYFRVDFYEAM [TTC32]
2. AGLCMDSPSPMDPHMAEQTFEQAI [CDC25B]
3. VGGYFVDKFVATMYHYLQFAYYKL [P3H4]
4. EKLKEKLKMKEREEAWVKIENLAK [PPP2R5C]

[2.23, 4.6, 2.56, 2.48]

For FKEVKEKFKGWVSYSTSEQAELSY [DLC1] , what is its reported protein stability index?
2.87

###

method-summary: protein stability index of a GFP-peptide fusion (GPS, HEK-293T) (PSI 1-6); higher = more stable
assay-setup: treatment: DMSO; c terminus: a fixed tail appended
Could you please report measured protein stability index for the items listed next?
Numbers only.

biosequence: KERPLVIGHFNTASGVGFILGPVV [MFSD9]
measured-metric: protein stability index
reported-value: 3.04
--
biosequence: DGLFDNMPDYMILQELKKLKNSNY [PPTC7]
measured-metric: protein stability index
reported-value: 2.57
--
biosequence: NQKLFDLRGKFKRPPLRRVRMSAD [TNNI2]
measured-metric: protein stability index
reported-value: 3.17
--
biosequence: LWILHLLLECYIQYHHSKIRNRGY [TMEM192]
measured-metric: protein stability index
reported-value: 2.61
--
biosequence: LKPTLTIIKTEKVDLELFPSPDME [ETS1]
measured-metric: protein stability index
reported-value: 3.4

Return reported protein stability index values for all items listed beneath this line.
1. EGHCVIQVDVGDVNDNAPEVLLAS [PCDHGC5]
2. APHQQPPAPPSDALLDLHFPSDHL [TFE3]

3.86
4.65

###

Could you please report measured protein stability index for the items listed next?
method-summary: protein stability index of a GFP-peptide fusion (GPS, HEK-293T) (PSI 1-6); higher = more stable
assay-setup: treatment: DMSO; c terminus: a fixed tail appended
One number for each entry.

Some solved cases for reference:
biosequence: QIGFSVGLGNIWRFPYLCQKNGGG [SLC6A17]
protein stability index: 2.02

biosequence: RLRKCYEVGMVKCGSRRERCGYRL [ESR2]
protein stability index: 2.54

Return reported protein stability index values for all items listed beneath this line.
1. ADSETPTIQKGSYTFVPWLLSFKR [TNFSF13B]
2. EVVPIHGRGNFPTLEITLKDIVQT [TENT5C]
3. LGLTNQSRRYNRKEPAEFNGDGAF [ZNF649]
4. NALTLTFQRAMHDYNQAEMKQRDN [STX11]
5. PMLETASKLLLSGTADGADLRTVD [ANKRD17]
6. NKQGHGCESDIWALGCVMYTMLLG [PLK2]

1. 2.52
2. 3.5
3. 3.96
4. 3.54
5. 4.68
6. 2.87

Return reported protein stability index values for all items listed beneath this line.
1. LEAVLHCHQMGVVHRDLKPENLLL [CAMK2B]
2. HGRGTEVLLEEPLPLETARESPSF [ZNF263]
3. VDSLESHIPSQEVPGTQVGQGGKL [ZNF263]
4. NESTVCLMSYERRQILHLITMMAL [TENT5D]
5. LPGRGRVLSSWSRAFVSIQEEMAE [RHOBTB2]

2.22
4.69
5.33
2.3
3.08
